Assay: Drug concentration in Wistar rat plasma at 10 mg/kg, po after 1 hr by LC-MS/MS analysis
Type: ADME, organism-based
Attribute Measured: concentration at 1 h (nM)
Numbers only, in nM.

Kindly note the recorded concentration at 1 h for CCC(=O)c1sc(-c2ccc(Cl)cc2)c(C)c1-c1ccc(S(N)(=O)=O)cc1 , which is 870

* * *

Assay: Half life in human at 7.5 to 50 mg administered for 14 days
Format: ADME
Conditions: in vivo
Attribute Measured: half-life

Kindly note the recorded half-life for CCC(=O)c1sc(-c2ccc(Cl)cc2)c(C)c1-c1ccc(S(N)(=O)=O)cc1 , which is 48 to 80.9 h

* * *

Assay: Brain to plasma permeability coefficient, Kp in Wistar rat at 10 mg/kg, po after 4 hrs by LC-MS/MS analysis
Assay type: ADME, organism-based
Attribute Measured: Kp at 4 h

Kindly note the recorded Kp at 4 h for CCC(=O)c1sc(-c2ccc(Cl)cc2)c(C)c1-c1ccc(S(N)(=O)=O)cc1 , which is 10.7

* * *

Assay: Drug level in scopolamine-induced Sprague-Dawley rat brain at 0.05 mg/kg, po for 7 days
Type: ADME, organism-based
Conditions: read-out: Drug uptake
Attribute Measured: concentration at 168 h (µM)
Answers are plain numbers, in µM.

Kindly note the recorded concentration at 168 h for CCC(=O)c1sc(-c2ccc(Cl)cc2)c(C)c1-c1ccc(S(N)(=O)=O)cc1 , which is 0.25

* * *

Assay: AUCt in Wistar rat brain at 10 mg/kg, po after 1 to 144 hrs by LC-MS/MS analysis
Assay type: ADME, organism-based
Attribute Measured: AUC(0-t) (µM·h)
Give bare numbers, in µM·h.

Kindly note the recorded AUC(0-t) for CCC(=O)c1sc(-c2ccc(Cl)cc2)c(C)c1-c1ccc(S(N)(=O)=O)cc1 , which is 301

* * *

Assay: Drug concentration in Swiss mouse plasma at 40 mg/kg, sc after 30 mins by LC-MS analysis
Format: ADME, organism-based
Attribute Measured: concentration at 0.5 h (µg/mL)
Answers are plain numbers, in µg/mL.

Kindly note the recorded concentration at 0.5 h for OCc1sc(Nc2ccc(F)c(C(F)(F)F)c2)nc1-c1ccncc1 , which is 5.92

* * *

Experiment: Unbound brain-to-plasma concentration ratio in Wistar rat at 10 mg/kg, po after 4 hrs by LC-MS/MS analysis
Assay type: ADME, organism-based
Details: read-out: K(p,uu,brain)
Attribute Measured: Kp uu at 4 h
Give bare numbers.

Kindly note the recorded Kp uu at 4 h for CCC(=O)c1sc(-c2ccc(Cl)cc2)c(C)c1-c1ccc(S(N)(=O)=O)cc1 , which is 1.29

* * *

Experiment: Clearance in Beagle dog at 1 mg/kg, iv after 0.083 to 144 hrs by LC-MS/MS analysis
Format: ADME, organism-based, Canis lupus familiaris
Conditions: in vivo
Attribute Measured: clearance

Kindly note the recorded clearance for CCC(=O)c1sc(-c2ccc(Cl)cc2)c(C)c1-c1ccc(S(N)(=O)=O)cc1 , which is 0.7 mL/min/kg

* * *

Assay: Metabolic stability in dog liver microsomes assessed as compound remaining at 1 uM preincubated for 5 mins followed by NADPH addition and measured after 30 mins by LC-MS/MS analysis
Assay type: ADME, Canis lupus familiaris, Microsome
Conditions: read-out: Stability
Attribute Measured: remaining at 0.5 h, 1 µM (%)
Numbers only, in %.

CCC(=O)c1sc(-c2ccc(OC)cc2)c(C)c1-c1ccc(S(N)(=O)=O)cc1: 84

Next up:
Kindly note the recorded remaining at 0.5 h, 1 µM for CCC(=O)c1sc(-c2ccc(Cl)cc2)c(C)c1-c1ccc(S(N)(=O)=O)cc1 , which is 93

* * *

Test: Drug level in rat plasma at 10 mg/kg, ip after 120 mins by HPLC-LC/MS analysis
Type: ADME, organism-based
Attribute Measured: concentration at 2 h
Give me the value, and tack the unit on after it.

Kindly note the recorded concentration at 2 h for O=C(Nc1cc(Cl)ccc1O)Nc1cc(C(F)(F)F)ccc1Cl , which is 172 ng/mL

* * *

Test: Oral bioavailability in BALB/c mouse at 10 mg/kg after 0.25 to 144 hrs by LC-MS/MS analysis
Format: ADME, organism-based
Settings: in vivo
Attribute Measured: bioavailability

Kindly note the recorded bioavailability for CCC(=O)c1sc(-c2ccc(Cl)cc2)c(C)c1-c1ccc(S(N)(=O)=O)cc1 , which is 57%

* * *

Test: Protein binding in human plasma assessed as unbound fraction at 5 uM incubated for 16 hrs under shaking condition by LC/MS/MS based rapid equilibrium dialysis method
Type: ADME, cell-free
Attribute Measured: fraction unbound at 16 h, 5 µM
Numbers only.

Kindly note the recorded fraction unbound at 16 h, 5 µM for CCC(=O)c1sc(-c2ccc(Cl)cc2)c(C)c1-c1ccc(S(N)(=O)=O)cc1 , which is 0.0015

* * *

Assay: Ratio of drug level in Sprague-Dawley rat brain to plasma at 3 mg/kg, po after 1 hr
Type: ADME, organism-based
Conditions: brain and plasma, read-out: BPR
Attribute Measured: Kp at 1 h
Numbers only.

Kindly note the recorded Kp at 1 h for COc1cc(OC)c(NC(=O)Nc2cc(C)on2)cc1Cl , which is 1.18

* * *

Assay: Oral bioavailability in Beagle dog at 10 mg/kg after 0.25 to 144 hrs by LC-MS/MS analysis
Type: ADME, organism-based, Canis lupus familiaris
Details: in vivo
Attribute Measured: bioavailability (%)
Numbers only, in %.

Give bioavailability for all compounds that follow.
1. CCC(=O)c1sc(-c2ccc(OC)cc2)c(C)c1-c1ccc(S(N)(=O)=O)cc1
2. CCC(=O)c1sc(-c2ccc(Cl)cc2)c(C)c1-c1ccc(S(N)(=O)=O)cc1

A:
1: 4; 2: 60

* * *

Biological target: Neuronal acetylcholine receptor subunit alpha-7 (Homo sapiens)
Sequence (P36544 whole entry): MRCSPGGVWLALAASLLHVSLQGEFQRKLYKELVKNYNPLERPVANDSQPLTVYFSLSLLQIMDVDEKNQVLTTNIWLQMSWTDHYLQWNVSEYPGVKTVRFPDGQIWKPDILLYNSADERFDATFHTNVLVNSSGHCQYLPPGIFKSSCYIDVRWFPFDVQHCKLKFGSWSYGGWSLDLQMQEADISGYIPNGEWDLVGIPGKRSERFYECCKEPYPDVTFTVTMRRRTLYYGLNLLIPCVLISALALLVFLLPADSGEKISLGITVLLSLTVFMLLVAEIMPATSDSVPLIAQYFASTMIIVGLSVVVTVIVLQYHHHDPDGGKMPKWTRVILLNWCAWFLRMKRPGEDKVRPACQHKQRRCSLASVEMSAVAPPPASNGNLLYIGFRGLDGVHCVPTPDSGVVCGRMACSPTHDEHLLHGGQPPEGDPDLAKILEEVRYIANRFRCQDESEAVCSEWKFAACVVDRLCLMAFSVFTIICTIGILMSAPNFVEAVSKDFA
Experiment: Positive allosteric modulatory activity against alpha7 nAChR in human IMR-32 cells assessed as potentiation of PNU-282987-induced Ca2+ […] at 1 uM by FLIPR assay relative to control
Assay type: cell-based
Consider the following molecules; for each one, report its fold change (FC).
Answers are plain numbers.

Solved entries:
CCC(=O)c1sc(-c2ccc(Cl)cc2Cl)c(C)c1-c1ccc(S(N)(=O)=O)cc1: 12
CCC(=O)c1sc(-c2ccccc2)c(C)c1-c1ccc(S(N)(=O)=O)cc1: 2.4
CCC(=O)c1sc(-c2ccccc2Cl)c(C)c1-c1ccc(S(N)(=O)=O)cc1: 1
CCC(=O)c1sc(-c2ccc(OC)cc2)c(C)c1-c1ccc(S(N)(=O)=O)cc1: 22
CCCN(CCO)C(=O)c1sc(-c2ccc(Cl)cc2)c(C)c1-c1ccc(S(N)(=O)=O)cc1: 1

Give fold change (FC) for all molecules that follow.
1. CC(=O)c1sc(-c2ccc(Cl)cc2)c(C)c1-c1ccc(S(N)(=O)=O)cc1
2. CCOc1ccc(-c2sc(C(=O)CC)c(-c3ccc(S(N)(=O)=O)cc3)c2C)cc1

A:
[7, 6]

Give fold change (FC) for all molecules that follow.
1. CCC(=O)c1sc(-c2ccc(C3CC3)cc2)c(C)c1-c1ccc(S(N)(=O)=O)cc1
2. Cc1c(-c2ccc(Cl)cc2)sc(C(=O)N(C)C)c1-c1ccc(S(N)(=O)=O)cc1

A:
[7, 1]

* * *

Assay: AUC (0 to 144 hrs) in Wistar rat at 10 mg/kg, po after 0.25 to 144 hrs by LC-MS/MS analysis
Assay type: ADME, organism-based
Parameters: dose 10 mg/kg, time < 144 hr, route oral
Details: in vivo
Consider the following molecules; for each one, report its AUC(0-t) at 144 h.
Answers are plain numbers, in µM·h.

Give AUC(0-t) at 144 h for all molecules that follow.
1. CCC(=O)c1sc(-c2ccc(OC)cc2)c(C)c1-c1ccc(S(N)(=O)=O)cc1
2. CCC(=O)c1sc(-c2ccc(Cl)cc2)c(C)c1-c1ccc(S(N)(=O)=O)cc1

A:
1: 8.2; 2: 201

* * *

Assay: Half life in Wistar rat at 10 mg/kg, po after 0.25 to 144 hrs by LC-MS/MS analysis
Format: ADME, organism-based
Conditions: in vivo
Attribute Measured: half-life
Give me the value, and tack the unit on after it.

Kindly note the recorded half-life for CCC(=O)c1sc(-c2ccc(Cl)cc2)c(C)c1-c1ccc(S(N)(=O)=O)cc1 , which is 2700 min

* * *

Test: Half life in BALB/c mouse at 1 mg/kg, iv after 0.083 to 144 hrs by LC-MS/MS analysis
Assay type: ADME, organism-based
Settings: in vivo
Attribute Measured: half-life (h)
Give bare numbers, in h.

Kindly note the recorded half-life for CCC(=O)c1sc(-c2ccc(Cl)cc2)c(C)c1-c1ccc(S(N)(=O)=O)cc1 , which is 14

* * *

Test: Drug level in DBA/2 mouse brain at 0.3 mg/kg, iv after 10 mins
Assay type: ADME, organism-based
Conditions: read-out: Drug uptake
Attribute Measured: concentration at 10 min (nM)
Give bare numbers, in nM.

Kindly note the recorded concentration at 10 min for Cc1cc(/C(=C/Nc2ccc(Cl)cc2)C(=O)Nc2ccc(Cl)cc2)on1 [AVL-3288] , which is 1000
